Target: T1, cynoNectin4-mFc (cyno, UniProt A0A2K5WES1 32-349)
T1 construct: Immobilized on the SPR chip; also called cyanoNectin4; not shown: mFc (mouse Fc)
T1 sequence: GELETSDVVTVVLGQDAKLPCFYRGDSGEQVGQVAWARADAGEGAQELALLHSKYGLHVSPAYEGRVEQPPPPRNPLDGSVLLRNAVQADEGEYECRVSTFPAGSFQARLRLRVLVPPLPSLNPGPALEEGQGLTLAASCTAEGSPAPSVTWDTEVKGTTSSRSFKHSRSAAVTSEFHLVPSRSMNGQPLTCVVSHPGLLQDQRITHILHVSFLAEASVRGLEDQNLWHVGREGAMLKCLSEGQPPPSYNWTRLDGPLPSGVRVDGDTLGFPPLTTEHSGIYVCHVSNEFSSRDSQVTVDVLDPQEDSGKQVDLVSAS
Assay: SPR, cynoNectin4-mFc immobilized, pH 6.0
Experimental: Binding kinetics of anti-Nectin4 antibodies were measured by surface plasmon resonance using a SPR2/4 instrument (Sierra Sensors, Hamburg, Germany) and flat amine sensor chips. The SPR sensor contained four flow cells (FC1-FC4), each of which was addressed individually or in groups. huNectin4-His was immobilized in FC2, and cynoNectin4-mFc in FC4. No protein was immobilized in FC1 and FC3 which were used as control surfaces for FC2 and FC4, respectively. […] The off-rate was measured for 360s. […]
Experimental Endpoint: pKd
A value of pKd is the negative decimal logarithm of a concentration given in moles per litre.

Illustrative cases are given below, each with its answer.
INSERT INTO results (binder, experimental_endpoint, recorded_value) VALUES
  ('BAP-143-07-03-12 (antibody, V domains shown, Used as a conjugate with a linker payload (CAB ADC)) VH: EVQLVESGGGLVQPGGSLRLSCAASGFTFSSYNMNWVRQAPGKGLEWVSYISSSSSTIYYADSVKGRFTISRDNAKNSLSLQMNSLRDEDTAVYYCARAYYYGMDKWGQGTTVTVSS VL: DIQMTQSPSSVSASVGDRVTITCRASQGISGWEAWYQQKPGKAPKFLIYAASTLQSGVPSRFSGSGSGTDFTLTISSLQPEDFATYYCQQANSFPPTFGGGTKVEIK', 'pKd', 8.94),
  ('BAP-143-wildtype (antibody, V domains shown, 150 kDa used in SPR; also called BAP143-00-00; benchmark (BM)) VH: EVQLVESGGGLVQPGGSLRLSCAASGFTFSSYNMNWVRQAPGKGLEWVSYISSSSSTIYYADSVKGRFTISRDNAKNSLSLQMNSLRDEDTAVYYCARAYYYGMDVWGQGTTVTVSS VL: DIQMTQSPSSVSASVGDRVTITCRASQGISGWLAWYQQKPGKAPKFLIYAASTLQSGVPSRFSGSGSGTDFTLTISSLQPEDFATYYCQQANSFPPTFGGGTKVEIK', 'pKd', 9.51);

We now examine a further binder.
Can you look up the measured pKd of BAP-143-06-24-16 (antibody, V domains shown, Used as a conjugate with a linker payload (CAB ADC)) VH: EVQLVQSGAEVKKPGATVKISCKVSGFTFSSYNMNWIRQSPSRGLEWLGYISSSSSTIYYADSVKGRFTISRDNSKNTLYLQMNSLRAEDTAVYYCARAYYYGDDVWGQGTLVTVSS VL: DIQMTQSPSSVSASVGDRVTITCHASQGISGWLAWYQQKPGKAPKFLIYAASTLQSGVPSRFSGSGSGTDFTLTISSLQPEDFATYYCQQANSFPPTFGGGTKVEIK for me?
9.68
